STUDY_SYSTEM: UniProt:P35372
Sequence (P35372 whole entry): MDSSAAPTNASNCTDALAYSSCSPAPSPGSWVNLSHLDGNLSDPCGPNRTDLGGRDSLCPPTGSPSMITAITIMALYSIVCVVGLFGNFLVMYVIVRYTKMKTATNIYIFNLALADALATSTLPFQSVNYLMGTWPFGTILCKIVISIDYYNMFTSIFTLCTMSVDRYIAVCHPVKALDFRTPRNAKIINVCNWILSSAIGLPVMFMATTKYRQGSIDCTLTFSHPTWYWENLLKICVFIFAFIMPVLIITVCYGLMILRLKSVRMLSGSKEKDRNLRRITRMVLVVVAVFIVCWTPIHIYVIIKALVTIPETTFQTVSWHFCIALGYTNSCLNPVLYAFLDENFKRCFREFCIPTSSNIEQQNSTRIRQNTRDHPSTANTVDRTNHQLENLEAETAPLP
PROTOCOL_SUMMARY: OPRMu1 Discover X β-arrestin Assay, antagonist mode (U2OS cells, DAMGO EC80 challenge)
pIC50: −log10 of the molar value.
List of pIC50 values.
ASSAY_METRIC: pIC50

COMPOUND | ASSAY_METRIC | VALUE_REPORTED
CCc1cc(F)c2nc(N3CCN(/C(=N/C#N)NC)C[C@H]3C)c(-c3nc(C)no3)c(C)c2c1 [Compound 55] | pIC50 | < 6.00
CCc1cc(-c2ccnn2C)c2nc(N3CCC(N[C@@H]4CCOC4)CC3)c(-c3ccn(C)n3)c(C)c2c1 [Compound 87] | pIC50 | 6.00 to 7.00
CCc1cc(-c2ccnn2C)c2nc(N3CCC(N[C@H]4CCOC[C@H]4F)CC3)c(-c3ccn(C)n3)c(C)c2c1 [Compound 21] | pIC50 | 7.00 to 8.00
CCc1cc(F)c2nc(N3CCN(/C(=N\C#N)NC4CCOCC4)C[C@H]3C)c(-c3ccn(C)n3)c(C)c2c1 [Compound 11] | pIC50 | 8.00 to 9.00
CCc1cc(-c2ccn(C)n2)c2nc(N3CCC(N[C@H]4CCOC4)CC3)c(-c3ccn(C)n3)c(C)c2c1 [Compound 99] | pIC50 | < 6.00
CCc1cc(F)c2nc(N3CCN(C[C@H]4CCCO4)C[C@H]3C)c(-c3nc(C)no3)c(C)c2c1 [Compound 30] | pIC50 | < 6.00
CCc1cc(F)c2nc(N3CCN(C(=O)[C@@H]4CCCN4C)C[C@H]3C)c(-c3nc(C)no3)c(C)c2c1 [Compound 46] | pIC50 | < 6.00
